Origin of values: PubChem BioAssay (NCI)

- Tested on: CCRF-CEM leukemia
- protocol text: NCI-60 one-dose screen, 48 h (100 = growth as untreated, 0 = no growth, -100 = all killed)
- measurement parameters: 10 µM unless noted
Compounds without any hit were thinned out: in the full panel of roughly 83,000, 20% have a hit.
assay endpoint: growth (%)
Give bare numbers, in %.

Sample `Fc1cc(-c2nnc3sc(-c4ccc(Cl)cc4Cl)nn23)c(Cl)cc1Cl` ; growth observed: -78.6

// sample COc1cccc2nc3n(c12)C(c1c(F)cccc1F)SC3 (stereo unspecified) , its growth was 89.5

Lab book: growth of CCN1C(=O)N(CC)C2Nn3c(s/c(=C4\C(=O)N(CCC(C)C)c5ccccc54)c3=O)=NC21 (stereo unspecified) noted as 57.1

Measured growth, COc1ccc(N2C(=O)C(Oc3ccccc3)C2c2ccc(C)cc2)cc1 (stereo unspecified) : 101

Entry `CCCCn1c(=O)c(-c2cc(-c3ccc(Cl)cc3)nc(-c3ccc(Cl)cc3)c2)cc2cc(C)ccc21` , growth reported as 101

Summary for this compound, `Cc1nc(S(=O)(=O)c2ccccc2)c(S(=O)(=O)Cc2ccc([N+](=O)[O-])cc2)o1` : growth is 82.8

Could I get growth for every one of these entries?
1. c1cc(NCCc2ccncc2)nc(-n2cnc3ccccc32)c1
2. COc1cc(-c2nc3sccn3c2-c2ccnc(NCCCNS(=O)(=O)c3ccc(F)cc3)n2)ccc1F
3. COc1cc(/C=C2\C(=O)Nc3ccc(Br)cc32)cc(OC)c1OC
4. COc1cccc(-c2nc(-c3ccc(NC(=O)C(C)C)cc3)[nH]c2-c2ccnc(Br)c2)c1
5. CCN(CC)S(=O)(=O)c1ccc(NC(=O)CSc2nnc(C)n2-c2ccccc2)cc1
6. O=c1c2cccc(F)c2sc2c(NCCCNCCO)nc3ccccc3c12
7. O=C(Nc1c2ccccc2nc2ccccc12)c1ccccc1CN1C(=O)c2ccccc2C1=O
8. O=c1cc(SCc2ccccc2)nc[nH]1

Marked response:
1: 99.8; 2: 24.7; 3: 72.8; 4: 21.8; 5: 97.9; 6: 22.7; 7: 40.8; 8: 98.5

Dear colleague, could you send me growth for each of the items below? Thanks.
1. Cc1ccc2sc3c(NCCN)nc4ccccc4c3c(=O)c2c1
2. c1ccc(Cc2nn3cc(-c4ccccc4)nc3s2)cc1

Marked response:
32.8
102

Provide each entry's growth from the list below.
1. C=C1C(=O)O[C@H]2[C@H]1CC/C(COC(=O)CCC(=O)NCCOCCOCC(=O)Nc1ccc(OC)c(C(N)=O)c1O)=C\CC[C@@]1(C)O[C@@H]21
2. COc1cccc2c(=O)c3c(sc12)c(N1CCNCC1)nc1ccccc13
3. CCOC(=O)CC1C(COC(=O)NC)OC(n2cnc3c(NC(=O)Nc4ccccc4)ncnc32)C1O[Si](C)(C)C(C)(C)C (stereo unspecified)
4. Cc1ccc(C(CC(=O)O)c2c(C)[nH][nH]c2=O)cc1 (stereo unspecified)
5. Cc1cc2[nH]c(=O)c3c4ncccc4cn3c2cc1C

Marked response:
1. 53.7
2. 13.8
3. 57.4
4. 97.1
5. 21.7

Here are 4 compounds. What values of growth were reported for them?
1. CC(=O)OC[C@H]1OC(Sc2sc(C(=O)c3ccc(C)cc3)c(N)c2-c2nc3ccccc3s2)[C@H](OC(C)=O)[C@@H](OC(C)=O)[C@@H]1OC(C)=O (stereo partly specified)
2. Cc1ccc(NC2=C(Cl)C(=O)c3nc(C)ccc3C2=O)cc1
3. CCOc1cccc(NC2=C(Br)C(=O)C(C)=C(C)C2=O)c1
4. COC(=O)[C@H](C)NC(=O)NC(=O)NC(=O)CI

Marked response:
60.5
0.58
3.35
-55.5

Below are some compounds; for each one, tell me its growth.
1. Nc1ccccc1-c1cc2c(c3c1[nH]c1ccccc13)CCCCC2
2. NCCCNc1nc2ccccc2c2c(=O)c3cc(F)cc(F)c3sc12
3. Oc1ccc(C#CCOc2ccccc2)cc1CNCCN(Cc1ccccn1)Cc1ccccn1
4. Cc1nc2ccccc2c(/C=C/c2ccccc2)c1C(=O)/C=C/c1ccc(C(F)(F)F)cc1

Marked response:
93.1
-6.51
6.83
9.14

Kindly give each listed record's growth.
1. CCOC(=O)/C(C#N)=C\Nc1ccc2ncnc(Nc3ccc(Cl)cc3Cl)c2c1
2. CCOC(=O)C1=C(N)Oc2c(sc3c(CC)cccc23)C1c1ccc(F)cc1 (stereo unspecified)

Marked response:
1: 70.9; 2: 27.6
